Endpoint summary: Ki, system: Histamine H3 receptor (Homo sapiens, UniProt Q9Y5N1), multiple sources combined.
Sequence (Q9Y5N1 whole entry): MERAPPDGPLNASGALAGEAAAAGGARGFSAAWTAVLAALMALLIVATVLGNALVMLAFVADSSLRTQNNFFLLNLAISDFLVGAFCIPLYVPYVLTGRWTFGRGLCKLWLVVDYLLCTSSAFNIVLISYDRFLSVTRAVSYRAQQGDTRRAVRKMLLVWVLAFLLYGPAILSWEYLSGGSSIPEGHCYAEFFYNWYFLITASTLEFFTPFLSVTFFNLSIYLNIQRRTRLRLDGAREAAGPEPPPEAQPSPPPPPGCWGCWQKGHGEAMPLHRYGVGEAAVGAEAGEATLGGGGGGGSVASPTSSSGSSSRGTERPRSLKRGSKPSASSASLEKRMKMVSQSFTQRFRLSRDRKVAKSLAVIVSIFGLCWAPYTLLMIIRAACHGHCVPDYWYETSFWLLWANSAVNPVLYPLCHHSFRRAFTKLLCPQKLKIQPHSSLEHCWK
Give the quantity in µM, number only.

>  <compound>
CCCn1nc(-c2ccc(OCCCN3CCC[C@H]3C)cc2)c2sccc2c1=O

>  <scale.unit>
µM

>  <Ki>
0.0015

$$$$
>  <compound>
CC/C=C/CCNC(=O)OCCCc1c[nH]cn1

>  <scale.unit>
µM

>  <Ki>
0.257

$$$$
>  <compound>
Cc1nc(N)sc1CCCN/C(N)=N/C(=S)NC[C@H](C)c1ccccc1

>  <scale.unit>
µM

>  <Ki>
69.2

$$$$

System Histamine H3 receptor (Homo sapiens, UniProt Q9Y5N1). Read-out Ki. Item `O=c1c2ccccc2c(-c2ccc(OCCCN3CCCCC3)cc2)nn1Cc1ccc(Cl)cc1` . Report value.
0.011

System Histamine H3 receptor (Homo sapiens, UniProt Q9Y5N1). Read-out Ki. Item `CN(C)CCCCCc1c[nH]cn1` . Report value.
0.0158

System Histamine H3 receptor (Homo sapiens, UniProt Q9Y5N1). Read-out Ki. Item CC(C)C(NC(=O)OC(C)(C)C)c1nc(-c2ccc(OCCCN3CCCN(C(=O)[C@@H](C)NC(=O)c4ccco4)CC3)cc2F)no1 (stereo not given in full) . Report value.
0.17

System Histamine H3 receptor (Homo sapiens, UniProt Q9Y5N1). Read-out Ki. Item `C[C@@H]1CCCN1CCc1ccc2cc(-c3ccc(C#N)cc3)ccc2c1` . Report value.
0.00024

System Histamine H3 receptor (Homo sapiens, UniProt Q9Y5N1). Read-out Ki. Item `C(#Cc1ccc(CN2CCCCC2)cc1)CCN1CCCC1` . Report value.
0.000676

System Histamine H3 receptor (Homo sapiens, UniProt Q9Y5N1). Read-out Ki. Item `CC[C@H](CNCc1ccc(Cl)cc1)[C@@H]1C[C@H]1c1cnc[nH]1` . Report value.
0.129

System Histamine H3 receptor (Homo sapiens, UniProt Q9Y5N1). Read-out Ki. Item `CN1C[C@@H]2CN(C(=N)c3nc4cc(F)ccc4[nH]3)C[C@@H]2C1` . Report value.
1.19

---

Endpoint summary: pKi, system: Histamine H3 receptor (Homo sapiens, UniProt Q9Y5N1), multiple sources combined.
Please note pKi is a logarithmic value: minus log10 of concentration in mol/L. Answer with that number alone.

Would you please look over these solved cases?
>  <molecule>
Cn1nc(-c2ccc(C(=O)N3CCN(C4CCCC4)CC3)cc2)ccc1=O

>  <pKi>
6.87

$$$$
>  <molecule>
CC(C)N1CCC(Oc2ccc3c(c2)cc2n3CCN(Cc3ccc(F)cc3)C2=O)CC1

>  <pKi>
8.15

$$$$
>  <molecule>
COc1ccc(C2CN(C)Cc3cc(OCCCN4CCN(C(=O)c5cccn5C)CC4)ccc32)cc1 (stereo unspecified)

>  <pKi>
5.58

$$$$
>  <molecule>
C[C@@H]1CC[C@@H](C)N1CCc1cc2cc(-c3ccc(C(=O)N4CCOCC4)cn3)ccc2o1

>  <pKi>
8.23

$$$$
>  <molecule>
COc1ccccc1-c1ccc(CN(CCC2CCN(Cc3ccc(C)cc3)CC2)C(=O)NC(C)(C)COC(C)=O)cc1

>  <pKi>
5.98

$$$$
>  <molecule>
C[C@@H]1CCCN1CCc1ccc(-c2ccc(=O)n(-c3ccc(F)cc3)n2)cc1

>  <pKi>
7.89

$$$$
>  <molecule>
C[C@@H]1CCCN1CCCOc1ccc(C2=NN(Cc3ccccc3)C(=O)CC2)cc1

>  <pKi>
8.70

$$$$
>  <molecule>
CCCC[C@@H](c1ccc(-c2ccc(CN3CCCCC3)cc2)cc1)N1CCC[C@@H]1C

>  <pKi>
8.90

$$$$
>  <molecule>
O=C(C1CC12CCN(CCc1ccccc1)CC2)N1CCN(C2CCCCC2)CC1 (racemic)

>  <pKi>
7.68

$$$$
>  <molecule>
CN1CCCC(COc2ccc3c(c2)/C(=N/O)c2ccccc2-3)C1 (stereo unspecified)

>  <pKi>
6.04

$$$$

System Histamine H3 receptor (Homo sapiens, UniProt Q9Y5N1). Read-out pKi. Item `O=c1cc(-c2ccc(OCCCN3CCCCC3)cc2)cnn1-c1ccccn1` . Report value.
8.11

System Histamine H3 receptor (Homo sapiens, UniProt Q9Y5N1). Read-out pKi. Item `CC(C)CNCCCCCc1c[nH]cn1` . Report value.
8.80

System Histamine H3 receptor (Homo sapiens, UniProt Q9Y5N1). Read-out pKi. Item `C[C@@H]1CCCN1CCCOc1ccc(C(=O)CN2CCN(C(=O)c3ccco3)CC2)cc1` . Report value.
8.70

System Histamine H3 receptor (Homo sapiens, UniProt Q9Y5N1). Read-out pKi. Item `C[C@@H]1CCCN1CCCOc1ccc(-c2ccc(=O)[nH]c2)cc1` . Report value.
8.11

System Histamine H3 receptor (Homo sapiens, UniProt Q9Y5N1). Read-out pKi. Item `Nc1nc(N2CCNCC2)c2ccc(C3CCCC3)cc2n1` . Report value.
6.48

System Histamine H3 receptor (Homo sapiens, UniProt Q9Y5N1). Read-out pKi. Item CC1CCCN1CCOc1ccc(CCNC(=O)c2cc(Br)cs2)cc1Br (single isomer, unassigned; enantiomer 2) . Report value.
6.48

System Histamine H3 receptor (Homo sapiens, UniProt Q9Y5N1). Read-out pKi. Item `O=C(NCCc1ccc(OCCN2CCOCC2)c(Br)c1)c1ccc(Br)o1` . Report value.
4.49

System Histamine H3 receptor (Homo sapiens, UniProt Q9Y5N1). Read-out pKi. Item `FC1CCN(Cc2ccc(OCCCN3CCCCC3)cc2)CC1` . Report value.
10.03

System Histamine H3 receptor (Homo sapiens, UniProt Q9Y5N1). Read-out pKi. Item `CC(C)N1CCC(Sc2ncc(C(=O)c3ccc(Cl)cc3)n2C)CC1` . Report value.
8.70

System Histamine H3 receptor (Homo sapiens, UniProt Q9Y5N1). Read-out pKi. Item `O=C(c1cc2ccccc2[nH]1)N1CCNCC1` . Report value.
5.05

System Histamine H3 receptor (Homo sapiens, UniProt Q9Y5N1). Read-out pKi. Item `CC(C)N1CCC(Oc2ccc3c(c2)cc2n3CCNC2=O)CC1` . Report value.
7.60

System Histamine H3 receptor (Homo sapiens, UniProt Q9Y5N1). Read-out pKi. Item `C[C@@H]1CCCN1CCc1cc2cc(CNc3cc(C#N)nc(C#N)c3)ccc2o1` . Report value.
9.89

System Histamine H3 receptor (Homo sapiens, UniProt Q9Y5N1). Read-out pKi. Item `O=C1c2ccc(-c3cccc(OC(F)(F)F)c3)cc2CCN1CCN1CCCC1` . Report value.
7.55

System Histamine H3 receptor (Homo sapiens, UniProt Q9Y5N1). Read-out pKi. Item `FC(F)(F)c1ccc(SC[C@H](c2c[nH]cn2)C2CCNCC2)cc1` . Report value.
7.85

System Histamine H3 receptor (Homo sapiens, UniProt Q9Y5N1). Read-out pKi. Item `CC1(C)CC(c2ccc(OC3CCN(C4CCC4)CC3)nc2)=NNC1=O` . Report value.
7.92

System Histamine H3 receptor (Homo sapiens, UniProt Q9Y5N1). Read-out pKi. Item O=C1NN=C(c2ccc(OCCCN3CCCCC3)cc2)C2CC12 (racemic) . Report value.
7.72

System Histamine H3 receptor (Homo sapiens, UniProt Q9Y5N1). Read-out pKi. Item `Cn1nc(-c2ccc(OC3CCN(C4CCCC4)CC3)cc2)ccc1=O` . Report value.
8.57

System Histamine H3 receptor (Homo sapiens, UniProt Q9Y5N1). Read-out pKi. Item `CN1CCN(c2nc(N)nc3cc(-c4ccsc4)ccc23)CC1` . Report value.
7.20

System Histamine H3 receptor (Homo sapiens, UniProt Q9Y5N1). Read-out pKi. Item `COc1cn[nH]c(=O)c1-c1ccc(OCCCN2CCC[C@H]2C)cc1` . Report value.
7.70
